# target-desc: human Siglec-7 on primary human monocyte-derived dendritic cells (human, UniProt Q9Y286 19-467)
# Sequence (Q9Y286 19-467): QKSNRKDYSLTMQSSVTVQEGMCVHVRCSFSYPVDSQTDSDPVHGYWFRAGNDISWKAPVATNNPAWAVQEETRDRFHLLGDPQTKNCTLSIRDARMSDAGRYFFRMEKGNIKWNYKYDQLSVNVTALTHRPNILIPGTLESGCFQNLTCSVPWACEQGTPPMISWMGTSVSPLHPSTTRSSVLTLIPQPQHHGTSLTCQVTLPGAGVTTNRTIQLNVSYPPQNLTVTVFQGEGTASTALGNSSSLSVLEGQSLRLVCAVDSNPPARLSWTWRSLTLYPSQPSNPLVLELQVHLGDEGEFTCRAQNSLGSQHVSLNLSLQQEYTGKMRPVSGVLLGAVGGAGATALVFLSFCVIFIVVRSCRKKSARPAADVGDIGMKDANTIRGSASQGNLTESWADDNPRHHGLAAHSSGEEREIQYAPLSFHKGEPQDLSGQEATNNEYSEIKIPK
# measurement-protocol: cell-based or functional assay
endpoint-name: Receptor downregulation, (EC50) (pM)

[
  {
    "binder": "S7AB-H8 (antibody, V domains shown, also called parental humanized antibody) VH: QVQLVQSGAEVKKPGASVKISCKASGYAFTNCWMNWVRQAPGQGLEWIGRIFPGNGHTNYAQKFQGRATLTEDTSTSTAYMELSSLRSEDTAVYYCARDYSDYYFDYWGQGTLVTVSS VL: DIQMTQSPSSLSASVGDRVTITCRASQDINTYLNWYQQKPGKAPKLLIYYTSRLHSGVPSRFSGSGSGTDYTLTISSLQPEDFATYYCQQGNTLPWTFGQGTKLEIK",
    "endpoint-name": "Receptor downregulation, (EC50) (pM)",
    "obs-value": 395
  },
  {
    "binder": "S7AB-H11 (antibody, V domains shown) VH: QVQLVQSGAEVKKPGASVKISCKASGYAFTNCWMNWVRQAPGQGLEWIGRIFPGNGHTNYAQKFQGRATLTEDTSTSTAYMELSSLRSEDTAVYYCARDYSDYYFDYWGQGTLLTVSS VL: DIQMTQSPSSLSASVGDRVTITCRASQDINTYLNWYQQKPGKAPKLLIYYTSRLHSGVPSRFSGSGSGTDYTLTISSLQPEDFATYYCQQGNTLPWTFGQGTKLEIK",
    "endpoint-name": "Receptor downregulation, (EC50) (pM)",
    "obs-value": 411
  },
  {
    "binder": "S7AB-H12 (antibody, V domains shown) VH: QVQLVQSGAEVKKPGASVKISCKASGYAFTNCWMNWVRQAPGQGLEWIGRIFPGNGHTNYAQKFQGRATLTEDTSTSTAYMELSSLRSEDTAVYYCARDYSDYYFDYWGQGTLLTVSS VL: DVQMTQSPSSLSASVGDRVTITCRASQDINTYLNWYQQKPGKAPKLLIYYTSRLHSGVPSRFSGSGSGTDYTLTISSLQPEDFATYYCQQGNTLPWTFGQGTKLEIK",
    "endpoint-name": "Receptor downregulation, (EC50) (pM)",
    "obs-value": 447
  },
  {
    "binder": "S7AB-H9 (antibody, V domains shown) VH: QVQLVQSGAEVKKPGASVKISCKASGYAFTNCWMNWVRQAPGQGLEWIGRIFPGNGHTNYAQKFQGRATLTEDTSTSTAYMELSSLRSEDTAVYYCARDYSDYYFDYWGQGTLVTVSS VL: DVQMTQSPSSLSASVGDRVTITCRASQDINTYLNWYQQKPGKAPKLLIYYTSRLHSGVPSRFSGSGSGTDYTLTISSLQPEDFATYYCQQGNTLPWTFGQGTKLEIK",
    "endpoint-name": "Receptor downregulation, (EC50) (pM)",
    "obs-value": 432
  }
]
